Biological target: MCL-1 (Homo sapiens (Human))
Experiment: Cell free Mcl-1:Bim affinity assay (fluorescence polarization competition)
Type: binding
Conditions: 15 nM MCL-1, 5 nM FITC-Bim, 1 hour at room temperature; class symbols; read-out: BIM_Ki
pKi: −log10 of the molar value.
MEASURE_NAME: pKi

# return recorded pKi for input CN(C)C(=O)O[C@H]1/C=C/CN2CCC[C@H]2C(=O)NS(=O)(=O)c2ccc3c(c2)N(C[C@@H]2CC[C@H]21)C[C@@]1(CCCc2cc(Cl)ccc21)CO3
7.00 to 9.00

# return recorded pKi for input CO[C@H]1/C=C/CN(C)C(C)(C)C(=O)NS(=O)(=O)c2ccc3c(c2)N(C[C@@H]2CC[C@H]21)C[C@@]1(CCCc2cc(Cl)ccc21)CO3
7.00 to 9.00

# return recorded pKi for input CC1(C)OC/C=C/[C@H](OCC(=O)N2CC(F)C2)[C@@H]2CC[C@H]2CN2C[C@@]3(CCCc4cc(Cl)ccc43)COc3ccc(cc32)S(=O)(=O)NC1=O
> 9.00

Now for a further compound.
# return recorded pKi for input CN1C/C=C/[C@H](OCCN2CC(F)C2)[C@@H]2CC[C@H]2CN2C[C@@]3(CCCc4cc(Cl)ccc43)COc3ccc(cc32)S(=O)(=O)NC(=O)C1(C)C
7.00 to 9.00

* * *

System: H929 cells
Experiment: Cell viability assay (H929 10 FBS)
Assay type: cell-based
Settings: Homo sapiens, NCI-H929, 24 hours, read-out: H929_10FBS IC50
MEASURE_NAME: IC50

# return recorded IC50 for input CC1(C)OC/C=C/[C@H](OC(=O)N2CC(F)(F)C2)[C@@H]2CC[C@H]2CN2C[C@@]3(CCCc4cc(Cl)ccc43)COc3ccc(cc32)S(=O)(=O)NC1=O [Example 49]
< 500 nM

# return recorded IC50 for input CC1(C)OC/C=C/[C@H](OC(=O)N2CC(O)C2)[C@@H]2CC[C@H]2CN2C[C@@]3(CCCc4cc(Cl)ccc43)COc3ccc(cc32)S(=O)(=O)NC1=O [Example 153]
< 500 nM

# return recorded IC50 for input CC1(C)OC/C=C/[C@H](OC(=O)NCCN2CCOCC2)[C@@H]2CC[C@H]2CN2C[C@@]3(CCCc4cc(Cl)ccc43)COc3ccc(cc32)S(=O)(=O)NC1=O [Example 180]
< 500 nM

Now for a further molecule.
# return recorded IC50 for input CO[C@@H]1/C=C/CNC2(CC2)C(=O)NS(=O)(=O)c2ccc3c(c2)N(C[C@@H]2CC[C@H]21)C[C@@]1(CCCc2cc(Cl)ccc21)CO3 [Example 119]
< 1000 nM

* * *

Biological target: MCL-1 (Homo sapiens (Human), UniProt Q07820)
Sequence (Q07820 whole entry): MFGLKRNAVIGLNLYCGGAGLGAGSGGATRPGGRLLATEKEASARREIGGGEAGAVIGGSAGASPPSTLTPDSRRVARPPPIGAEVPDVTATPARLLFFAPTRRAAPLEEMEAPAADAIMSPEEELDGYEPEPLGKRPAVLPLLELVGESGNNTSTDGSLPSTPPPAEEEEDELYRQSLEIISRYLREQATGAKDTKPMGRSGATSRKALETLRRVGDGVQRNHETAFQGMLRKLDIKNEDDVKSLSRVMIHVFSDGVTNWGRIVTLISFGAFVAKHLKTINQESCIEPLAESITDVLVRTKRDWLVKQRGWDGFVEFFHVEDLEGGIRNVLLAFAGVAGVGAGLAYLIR
Test: Cell free Mcl-1:Bim affinity assay (fluorescence polarization competition)
Assay type: binding
Settings: 15 nM MCL-1, 5 nM FITC-Bim, 1 hour at room temperature; class symbols; read-out: BIM_Ki
Exercise: for every item that follows, state its recorded Ki.

# return recorded Ki for input CNC(=O)O[C@H]1/C=C/COC2(CC2)C(=O)NS(=O)(=O)c2ccc3c(c2)N(C[C@@H]2CC[C@H]21)C[C@@]1(CCCc2cc(Cl)ccc21)CO3
< 1 nM

# return recorded Ki for input CONC(=O)O[C@H]1/C=C/COC(C)(C)C(=O)NS(=O)(=O)c2ccc3c(c2)N(C[C@@H]2CC[C@H]21)C[C@@]1(CCCc2cc(Cl)ccc21)CO3
< 1 nM

# return recorded Ki for input CC1(C)OC/C=C/[C@H](OC(=O)NCCN2CCCCC2)[C@@H]2CC[C@H]2CN2C[C@@]3(CCCc4cc(Cl)ccc43)COc3ccc(cc32)S(=O)(=O)NC1=O
1 to 100 nM

# return recorded Ki for input CN(C)C(=O)CO[C@H]1/C=C/COC(C)(C)C(=O)NS(=O)(=O)c2ccc3c(c2)N(C[C@@H]2CC[C@H]21)C[C@@]1(CCCc2cc(Cl)ccc21)CO3
< 1 nM

# return recorded Ki for input CCOC1CN(C(=O)O[C@H]2/C=C/COC3(CCC3)C(=O)NS(=O)(=O)c3ccc4c(c3)N(C[C@@H]3CC[C@H]32)C[C@@]2(CCCc3cc(Cl)ccc32)CO4)C1
< 1 nM

Now for a further molecule.
# return recorded Ki for input O=C1Cc2ccn(n2)CC(=O)N2CCC(C2)CN2C[C@@]3(CCCc4cc(Cl)ccc43)COc3ccc(cc32)S(=O)(=O)N1 (stereo partly drawn)
1 to 100 nM
